Target: purified recombinant rat FAAH (Rattus norvegicus, UniProt P97612)
Construct: The truncated rat FAAH (rFAAH) was expressed in E. coli and purified as described; made in house; host or cells: E. coli
Sequence (P97612 30-579 limits assumed): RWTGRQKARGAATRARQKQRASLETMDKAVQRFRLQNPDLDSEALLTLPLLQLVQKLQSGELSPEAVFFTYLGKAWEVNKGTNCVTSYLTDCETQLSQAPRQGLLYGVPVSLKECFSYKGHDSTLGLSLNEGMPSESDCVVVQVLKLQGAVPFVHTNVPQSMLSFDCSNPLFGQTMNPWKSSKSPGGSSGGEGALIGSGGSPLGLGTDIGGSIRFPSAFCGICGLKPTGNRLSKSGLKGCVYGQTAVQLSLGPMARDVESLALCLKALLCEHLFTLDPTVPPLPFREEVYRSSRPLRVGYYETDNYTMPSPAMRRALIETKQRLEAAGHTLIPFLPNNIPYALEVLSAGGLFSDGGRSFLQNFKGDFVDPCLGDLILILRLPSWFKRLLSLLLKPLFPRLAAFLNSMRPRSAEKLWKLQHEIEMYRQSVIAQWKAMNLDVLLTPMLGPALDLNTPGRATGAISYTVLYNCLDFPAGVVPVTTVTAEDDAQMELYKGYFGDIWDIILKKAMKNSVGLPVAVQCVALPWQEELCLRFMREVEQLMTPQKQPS
Experiment: FAAH inhibition enzyme assay (14C-oleamide hydrolysis, Dixon plot)
Format: biochemical
Conditions: rat FAAH

[
  {
    "Compound": "O=C(CCCCSCc1ccccc1)c1ncc(-c2ccccn2)o1 [12k]",
    "FAAH inhibitory potency (in words)": "significant potency"
  },
  {
    "Compound": "O=C(CCCCCCc1cccs1)c1ncc(-c2ccccn2)o1 [5a]",
    "FAAH inhibitory potency (in words)": "effective inhibitors"
  },
  {
    "Compound": "CCCCCCc1ccc(CCCCCCC(=O)c2ncc(-c3ccccn3)o2)cc1 [5nn]",
    "FAAH inhibitory potency (in words)": "significant potency"
  },
  {
    "Compound": "O=C(CCCCCCc1ccc2ccccc2c1)c1ncc(-c2ccccn2)o1 [5d]",
    "FAAH inhibitory potency (in words)": "effective inhibitors"
  },
  {
    "Compound": "O=C(CCCCCCc1cccc2ccccc12)c1ncc(-c2ccccn2)o1 [5c]",
    "FAAH inhibitory potency (in words)": "effective inhibitors"
  }
]

###

target: purified recombinant rat FAAH (Rattus norvegicus, UniProt P97612); construct: The truncated rat FAAH (rFAAH) was expressed in E. coli and purified as described; test: FAAH inhibition enzyme assay (14C-oleamide hydrolysis, Dixon plot); conditions: recombinant rat FAAH, 14C-oleamide, pH 9.0, 20-23 °C
pKi: −log10 of the molar value.

[
  {
    "Compound": "O=C(CCCCCCc1cccc(Cl)c1)c1ncc(-c2ccccn2)o1",
    "pKi": 9.05
  },
  {
    "Compound": "O=C(c1ncc(-c2ccccn2)o1)C(O)CCCCCc1ccccc1 (stereo not shown) [13d]",
    "pKi": 8.10
  },
  {
    "Compound": "O=C(CCCCCCc1cccc2ccccc12)c1ncc(-c2ccccn2)o1",
    "pKi": 8.59
  },
  {
    "Compound": "O=C(CCCCCSc1ccccc1)c1ncc(-c2ccccn2)o1 [12p]",
    "pKi": 8.52
  }
]
